# Organism: Rattus norvegicus
# Test summary: Regional uptake of [18F]AFA in frontal cortex of rat pretreated with compound nisoxetine; n=3
# Format: functional, organism-based
# Condition notes: tested as the 18F-labelled form
Measurement type: Uptake (%ID/g)
Give the quantity in %ID/g, number only.

Which Uptake value is on record for CN(C)Cc1ccccc1Sc1ccc(F)cc1N ? 0.36

Recorded Uptake for CN(C)Cc1ccccc1Sc1ccc(CCF)cc1N , please? 0.19

// lookup Uptake for CN(C)Cc1ccccc1Sc1ccc(CCCF)cc1N 0.13

What value of measured Uptake is listed for CN(C)Cc1ccccc1Sc1ccc(CF)cc1N ? 0.72

----------
Exercise: state measured Specific binding (dimensionless ratio) for each of the compounds provided.
# Tgt: UniProt:P31652
# Test summary: Specific binding in rat hypothalamus at 90 min postinjection in vivo
# Assay type: functional, organism-based
# Condition notes: tested as the 18F-labelled form
Would you mind answering with just the numeric figure?

For the compound CN(C)Cc1ccccc1Sc1ccc(CCCF)cc1N , what Specific binding (dimensionless ratio) is on record? 1.85

State the recorded Specific binding (dimensionless ratio) for this entry: CN(C)Cc1ccccc1Sc1ccc(CCF)cc1N 4.36

What measured Specific binding (dimensionless ratio) goes with CN(C)Cc1ccccc1Sc1ccc(F)cc1N ? 5.61

Value lookup for Specific binding (dimensionless ratio); key = CN(C)Cc1ccccc1Sc1ccc(CF)cc1N 5.81

----------
# Tgt: Sodium-dependent serotonin transporter (Rattus norvegicus)
# Test summary: Specific binding of [18F]AFA in rat frontal cortex after nisoxetine treatment; n=3
# Type: functional, tissue-based
# Condition notes: tested as the 18F-labelled form
Measurement type: Specific binding (%ID/g)
Numeric only. Scale: %ID/g

What does the record list as Specific binding for CN(C)Cc1ccccc1Sc1ccc(CCF)cc1N ? 1.82

GET /values?readout=Specific binding&item= CN(C)Cc1ccccc1Sc1ccc(F)cc1N 2.88

Entry CN(C)Cc1ccccc1Sc1ccc(CF)cc1N has what Specific binding? 4.02

Sample CN(C)Cc1ccccc1Sc1ccc(CCCF)cc1N — what was its Specific binding? 0.72

----------
Exercise: state measured Specific binding for each of the compounds provided.
# Tgt: Sodium-dependent serotonin transporter (Rattus norvegicus) (UniProt P31652)
# Sequence (P31652 whole entry): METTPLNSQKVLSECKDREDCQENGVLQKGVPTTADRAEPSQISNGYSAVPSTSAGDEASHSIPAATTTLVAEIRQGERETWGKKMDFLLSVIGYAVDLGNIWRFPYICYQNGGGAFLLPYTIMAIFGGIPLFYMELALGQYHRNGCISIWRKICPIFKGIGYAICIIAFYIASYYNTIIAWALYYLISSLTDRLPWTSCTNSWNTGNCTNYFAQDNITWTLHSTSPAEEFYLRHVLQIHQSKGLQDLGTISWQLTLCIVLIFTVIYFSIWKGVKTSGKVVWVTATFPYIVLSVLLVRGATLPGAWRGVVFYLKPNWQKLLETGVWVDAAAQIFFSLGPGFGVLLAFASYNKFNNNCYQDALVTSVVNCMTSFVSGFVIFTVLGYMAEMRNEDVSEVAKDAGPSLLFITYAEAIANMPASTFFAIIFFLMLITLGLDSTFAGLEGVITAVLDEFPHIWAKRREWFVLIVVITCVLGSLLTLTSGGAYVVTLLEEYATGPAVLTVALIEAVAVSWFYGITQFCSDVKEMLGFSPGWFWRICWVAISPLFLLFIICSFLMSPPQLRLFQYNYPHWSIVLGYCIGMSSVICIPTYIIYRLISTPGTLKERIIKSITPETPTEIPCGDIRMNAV
# Test summary: Specific binding of [18F]AFA in rat hippocampus after nisoxetine treatment; n=3
# Type: functional, tissue-based
# Condition notes: tested as the 18F-labelled form

What value of Specific binding has been recorded for this entry: CN(C)Cc1ccccc1Sc1ccc(CF)cc1N 2.72 %ID/g

Which value of Specific binding has been reported for CN(C)Cc1ccccc1Sc1ccc(CCCF)cc1N in the records? 1.02 %ID/g

So what's the measured Specific binding for this one? CN(C)Cc1ccccc1Sc1ccc(F)cc1N 1.96 %ID/g

Param item = CN(C)Cc1ccccc1Sc1ccc(CCF)cc1N ; retrieve measured Specific binding. 1.63 %ID/g

----------
So I've got a bunch of compounds here, and I need their Specific binding values.
# Tgt: Sodium-dependent serotonin transporter (Rattus norvegicus) (UniProt P31652)
# Test summary: Specific binding of [18F]AFA in rat hypothalamus after citalopram treatment; n=3
# Format: functional, tissue-based
# Condition notes: tested as the 18F-labelled form
Enter your answer as a number in %ID/g; do not include the unit.

Returns the measured Specific binding for the input compound. Input: CN(C)Cc1ccccc1Sc1ccc(F)cc1N 0.65

Request the reported Specific binding associated with CN(C)Cc1ccccc1Sc1ccc(CCCF)cc1N 0.66

I am curious: what Specific binding value has been reported for CN(C)Cc1ccccc1Sc1ccc(CF)cc1N ? 1.37

Could you tell me which Specific binding is on file for CN(C)Cc1ccccc1Sc1ccc(CCF)cc1N ? 1
